System: Malme-3M
Assay: NCI tumour cell line growth inhibition, 48 h
The source made the active and inactive calls. No stated cut-off is given here; in the data, active = GI50 up to about 1.1 µM and inactive = higher.
// one of active, inactive, no free text

Illustrative cases are given below, each with its answer.
[
  {
    "MOLECULE": "S=C(S)N1CCN(c2ccccc2)CC1",
    "ANSWER LABEL": "inactive"
  },
  {
    "MOLECULE": "O=C1C(=O)N(c2ccc(Cl)cc2)C(=O)/C(=N/c2cccc3c(=O)[nH][nH]c(=O)c23)C1c1nc2ccccc2o1 (stereo not drawn)",
    "ANSWER LABEL": "inactive"
  }
]

Next, consider the following molecule.
Q: Assay result, entry O=C1C(Cl)=C(N2CCSCC2)C(=O)c2c(O)ccc(O)c21 — outcome?
A: active

###

Test system: HOP-92
Experiment: NCI tumour cell line growth inhibition, 48 h
Activity calls are given as the source filed them. No stated cut-off is given here; in the data, active = GI50 up to about 1.1 µM and inactive = higher.
Respond only with the outcome that fits, drawn from active, inactive

Past entries and their recorded results:
[
  {
    "COMPOUND": "COC(=O)[C@@H](NS(=O)(=O)CC12CCC(CC1)C2(C)C)C(C)(C)C",
    "MEASURED ON": "HOP-92",
    "ANSWER LABEL": "inactive"
  },
  {
    "COMPOUND": "CC(C)(C)c1ccc(C(O)c2ccc(C(C)(C)C)cc2)cc1",
    "MEASURED ON": "HOP-92",
    "ANSWER LABEL": "inactive"
  },
  {
    "COMPOUND": "COc1cc([C@@H]2c3cc4c(cc3[C@@H](OC(=O)c3ccccc3)C3COC(=O)[C@@H]32)OCO4)cc(OC)c1O (some centres undefined)",
    "MEASURED ON": "HOP-92",
    "ANSWER LABEL": "active"
  },
  {
    "COMPOUND": "COc1ccc(-c2csc3c2[N+]2(C)C=CC=C2C3N2CCCC2)cc1 (centres undefined)",
    "MEASURED ON": "HOP-92",
    "ANSWER LABEL": "inactive"
  },
  {
    "COMPOUND": "CC(C)OP(=O)(CN(C)/C(F)=N\\C(F)(F)F)OC(C)C",
    "MEASURED ON": "HOP-92",
    "ANSWER LABEL": "inactive"
  }
]

Q: Could you check what this test reported for COc1ccc(C2C3C(=O)C=CC(=O)C3[C@@H]2C)cc1OC (some centres undefined) ?
A: inactive

Q: Dear all, I need the recorded test outcome for C[C@H]1CCC/C=C/[C@@H]2C[C@H](OC3OC(CO)C(O)C(O)C3O)C[C@H]2[C@H](O)/C=C/C(=O)O1 (some centres undefined) , thank you.
A: inactive

Q: Check the results log: what was the call for Cc1nc2ccc(S(=O)(=O)Nc3nccs3)cc2c(=O)n1NS(=O)(=O)c1nccs1 ?
A: inactive

Q: Entry O=C1/C(=C/c2ccc(Oc3ccccc3)cc2)N=C(c2ccccc2)N1c1ccc(S(=O)(=O)Nc2nccs2)cc1 : call = ?
A: inactive

Q: Outcome? N#C/N=[N+](\[O-])c1ccc(C(=O)O)cc1
A: inactive

Q: Short answer needed: outcome of this test for CCC1NC(=O)C1NC(=O)OC (centres undefined) ?
A: inactive

Q: Hey, what did the test say about C[C@@H](C[C@H]1OC(C)(C)O[C@@H]1C(C)(C)O)[C@H]1CC=C2[C@]3(C)[C@H](O)C[C@H]4C(C)(C)[C@H](O)CC[C@]4(C)[C@H]3CC[C@]21C ?
A: inactive

Q: Hi, sorry to bother you, what did the test record for O=C1CCC(=O)C(C(=O)CCC(=O)Nc2cccc(Cl)c2)C1 (centres undefined) ?
A: inactive

Q: Please indicate how the test categorized COc1ccc(CSc2nc3ccccc3nc2-c2cccs2)cc1 .
A: inactive

Q: Entry Cc1c(C(=O)/C=C/c2cccc3ccccc23)[n+]([O-])c2ccccc2[n+]1[O-] : call = ?
A: inactive

Q: Give the logged outcome of this assay for the following compound: CCCc1cc(=O)oc2c3c(c4c(c12)OC(C)(C)CC4)O[C@@H](C)[C@H](C)[C@H]3O
A: inactive

Q: Can you look up the reported call for O=C1CCC2COc3ccc(O)c1c32 (centres undefined) for me?
A: inactive

Q: Give the logged outcome of this assay for the following compound: c1ccc2c(c1)nnn2CNc1ccc(N2CCOCC2)cc1
A: inactive

Q: Check the results log: what was the call for COc1ccc2[nH]cc(C(=O)C(=O)NC34CC5CC(CC(C5)C3)C4)c2c1 ?
A: inactive

Q: Dear all, I need the recorded test outcome for C[C@]12CC/C(=N\O)C=C1CC[C@@H]1[C@@H]2CC[C@]2(C)C(=N/O)/C(=C/c3ccc([N+](=O)[O-])cc3)C[C@@H]12 , thank you.
A: inactive

Q: Call for entry O=C(/C=C/c1ccccc1O)c1ccc([N+](=O)[O-])cc1 :
A: inactive

###

Overview of recorded GI50 for various compounds
Tested on: SK-MEL-2
Experiment: NCI tumour cell line growth inhibition, 48 h
Calls of active or inactive are those of the source. No stated cut-off is given here; in the data, active = GI50 up to about 1.1 µM and inactive = higher.

Consider the following illustrative entries.
[
  {
    "COMPOUND": "O=C(O)CNS(=O)(=O)c1ccc(NC(=O)c2ccc(F)cc2)cc1",
    "GI50": "> 100 µM (inactive)"
  },
  {
    "COMPOUND": "O=S(=O)(O)c1ccc(O)c(/N=N/c2c(O)ccc3ccccc23)c1",
    "GI50": "> 100 µM (inactive)"
  },
  {
    "COMPOUND": "COc1ccc(OC)c(/C=C/NC=O)c1",
    "GI50": "> 100 µM (inactive)"
  },
  {
    "COMPOUND": "C=CC[N+]12CN3CN(CN(C3)C1)C2",
    "GI50": "42.1 µM (inactive)"
  },
  {
    "COMPOUND": "O=c1c2ccccc2nc(-c2ccc(Br)cc2)n1NC1OC(CO)C(O)C(O)C1O (stereo not drawn)",
    "GI50": "> 100 µM (inactive)"
  }
]

Q: Given the compound O=C1N=NC(=O)N1c1cc(C(F)(F)F)cc(C(F)(F)F)c1 , write its reported GI50.
A: 2.2 µM (inactive)

Q: Report GI50, nothing else, for this compound: CCOc1ccc(-c2oc(/C=N/NS(=O)(=O)c3ccc(C)cc3)c([N+](=O)[O-])c2-c2ccc(OCC)cc2)cc1
A: 19.9 µM (inactive)

Q: Consider the compound COc1ccc(C2NC3=C(CCCC3)N2)cc1 . State its measured GI50.
A: 43.8 µM (inactive)

###

Tested on: HL-60
Experiment: NCI tumour cell line growth inhibition, 48 h
Calls of active or inactive are those of the source. Cut-off read from the data, not from the text of the source: active = GI50 up to about 1.1 µM and inactive = higher.
ATTRIBUTE MEASURED: GI50

Record excerpt, results attached:
[
  {
    "COMPOUND": "CCCCCCCCCCCC(=O)OCC(C[As](=O)(O)O)OC(=O)CCCCCCCCCCC (stereo not drawn)",
    "RESULT": "2.61 µM (inactive)"
  },
  {
    "COMPOUND": "COC[n+]1cc2cc(OC)c(OC)cc2c2ccc3cc(OC)c(OC)cc3c21",
    "RESULT": "> 100 µM (inactive)"
  },
  {
    "COMPOUND": "C=C1Oc2nc3ccccc3c(=O)n2C1(C)C",
    "RESULT": "> 100 µM (inactive)"
  },
  {
    "COMPOUND": "O=[PH](O)c1ccccn1",
    "RESULT": "> 100 µM (inactive)"
  },
  {
    "COMPOUND": "CC(C)COC(=O)c1ccc(/N=C\\c2ccc(/C=N/c3ccc(C(=O)OCC(C)C)cc3)cc2)cc1",
    "RESULT": "> 100 µM (inactive)"
  }
]

Q: Give recorded GI50. CC(C)Cc1ccc(C(C)/C=C2\CCC(CN(C)C)C2=O)cc1 (stereo not drawn)
A: 5.61 µM (inactive)

Q: Fill in reported GI50 for this entry: CC(C)=Cc1cc(C(=O)Nc2ccc(Cl)c(Cl)c2)nc(N)n1
A: > 100 µM (inactive)

Q: Please give the documented GI50 of O=C(CCc1ccccc1)On1nnc2ccccc2c1=O
A: > 100 µM (inactive)

###

System: 786-0
Assay: NCI tumour cell line growth inhibition, 48 h
The source made the active and inactive calls. Rule as the data show it: active = GI50 up to about 1.1 µM and inactive = higher.
ATTRIBUTE MEASURED: GI50

[
  {
    "COMPOUND": "Cc1ccc(S(=O)(=O)N/N=C2\\C=C[C@]3(CC2)C(=O)N(C)c2ccccc23)cc1",
    "MEASURED ON": "786-0",
    "RESULT": "33.5 µM (inactive)"
  },
  {
    "COMPOUND": "O=C(O)C1(Cc2ccc3c(c2)CCC3)Cc2cc3c(cc2C1)CCC3",
    "MEASURED ON": "786-0",
    "RESULT": "> 100 µM (inactive)"
  },
  {
    "COMPOUND": "COCC#C[C@@]1(O)CCCCC1CC(OC)OC (some centres undefined)",
    "MEASURED ON": "786-0",
    "RESULT": "> 100 µM (inactive)"
  },
  {
    "COMPOUND": "CN(C)c1ccc(C2CC(=O)CC(c3ccc(N(C)C)cc3)C23C(=O)NC(=S)NC3=O)cc1 (centres undefined)",
    "MEASURED ON": "786-0",
    "RESULT": "54.6 µM (inactive)"
  },
  {
    "COMPOUND": "Cc1ccc(/C=C2\\NC(=S)N(CN3CCOCC3)C2=O)cc1",
    "MEASURED ON": "786-0",
    "RESULT": "> 100 µM (inactive)"
  },
  {
    "COMPOUND": "CS(=O)(=O)c1n[nH]c2nc(O)nc(O)c12",
    "MEASURED ON": "786-0",
    "RESULT": "> 10 µM (inactive)"
  },
  {
    "COMPOUND": "COC(=O)C1(C(=O)OC)N=C(C)OC1c1ccccc1O (centres undefined)",
    "MEASURED ON": "786-0",
    "RESULT": "> 100 µM (inactive)"
  },
  {
    "COMPOUND": "CCOC(=O)C(NC(=O)N(C1=NCC(C)S1)C1CCCCC1)(OC)C(F)(F)F (centres undefined)",
    "MEASURED ON": "786-0",
    "RESULT": "15.5 µM (inactive)"
  }
]

Consider the record given below.
Q: Report measured GI50; entry is O=C1c2ccccc2C(=O)c2c1ccc(O)c2O [ATHRAQUINONES A]
A: 63 µM (inactive)

Data provenance is ChEMBL document CHEMBL1201862.
